# test-name: Equilibrium solubility of C2E5 in aqueous media of varying pH
# Type: physicochemical
# setup-conditions: aqueous buffer, thermodynamic from solid, pH 7.1, room temperature

compound	unit-abbrev	solubility thermodynamic
CCOC(=O)CN(CCN(CC(=O)OCC)CC(=O)OCC)CCN(CC(=O)OCC)CC(=O)OCC [Formulation C2E5, penta-substituted ethyl ester of DTPA]	µg/mL	3000

* * *

# test-name: Equilibrium solubility of C2E5 in aqueous media of varying pH
# Assay type: physicochemical
# setup-conditions: aqueous buffer, thermodynamic from solid, pH 5.7, room temperature
readout-type: solubility thermodynamic

smiles-entry	result
CCOC(=O)CN(CCN(CC(=O)OCC)CC(=O)OCC)CCN(CC(=O)OCC)CC(=O)OCC	20.3 mg/mL
